Test system: HCT-116 colon
experimentDescription: NCI tumour cell line growth inhibition, 48 h
metric: TGI (µM)
State just the number; it will be interpreted in µM.

Tell us which TGI value is on record for O=C1C=CC(CC(=O)c2ccc3ccccc3c2)O1 (stereo unspecified)
32.3

Fill in reported TGI for this entry: "O=C1NCCS(=O)(=O)/C1=C\C=C\c1cccc(C(F)(F)F)c1"
3.72

Return TGI for the following compound: "O=[N+]([O-])c1ccc(S(=O)(=O)Cc2ccccc2)c2nonc12"
31.8

Lab note: next compound to report on.
Indicate the recorded TGI value for this compound: "COC(=O)c1ccc(NCc2cc(O)ccc2O)cc1"
35.7

----------
Tested on: EKVX NSCLC
Can you answer with just one of these options? active, inactive

GET /call?item= "CCN(CC)CCOc1ccc(C(=O)/C=C\c2ccc(Cl)cc2Cl)cc1" returns the recorded outcome of this test.
inactive

Record request — test call for "COc1ccc(Nc2c3ccccc3nc3[nH]c4ccccc4c23)cc1"
inactive

More entries:
Give the logged outcome of this assay for the following compound: "Cc1ccc(-c2nc(N3CCCNCC3)c3oc(-c4ccc(C)cc4)nc3n2)cc1"
inactive

# outcome recorded in this test, key = C/C=C(\C)C(=O)N[C@H]1C(O)C[C@]2(C)C3CC[C@@]4(C)C(CC[C@@H]4C(C)N(C)C)C3CCC2C1O (stereo not given in full)
inactive

Dear colleague, could you share the recorded outcome for Nc1nc(N)c2nc(CNc3ccc(C(=O)NC(CCCCNC(=O)c4ccccc4C(=O)O)C(=O)O)cc3)cnc2n1 (stereo not given) when you have a moment?
active

----------
System: SN12C renal
experimentDescription: NCI tumour cell line growth inhibition, 48 h
metric: TGI (µM)
Supply the numeric figure in µM, leaving out any unit text.

Some solved entries appear below for comparison.
Identify measured TGI associated with "O=C(/C=C(\O)c1ccccc1)c1cc(-c2ccccc2)n(-c2ccccc2)n1"
39.9

Provide only the value of recorded TGI for "C=CCN1CN(c2ccccc2)C2(CCN(CCCC3(c4ccc(F)cc4)OCCO3)CC2)C1=O"
32

---
Look up and report measured TGI for this entry: CC(CCCOC(c1ccccc1)(c1ccccc1)c1ccccc1)OC(=O)Nc1ccccc1 (stereo not given)
24.4

----------
Tested on: NCI-H460 lung
# GI50 per record follows

Name the value of GI50 reported for "CN(/N=N/c1nc(OCc2ccccc2)c2[nH]cnc2n1)C(=O)Oc1ccc([N+](=O)[O-])cc1" when tested on NCI-H460 lung.
6710 nM

State, for NCI-H460 lung, measured GI50 of the molecule listed here: "CC(=O)Oc1ccc(C(c2ccc(OC(C)=O)cc2)c2ccccn2)cc1"
> 78500 nM

Report value only: GI50, NCI-H460 lung, "CC(C)CCN[C@@H]1CCc2cc(O)c(N3CC(=O)NS3(=O)=O)c(F)c2C1"
> 100000 nM

Please report the measured GI50 for "Cc1ccc(-c2nc(N3CCCNCC3)c3oc(-c4ccc(C)cc4)nc3n2)cc1" tested on NCI-H460 lung.
1890 nM

Answer briefly: GI50 recorded on NCI-H460 lung for "COC(=O)[C@@H](C)C[C@H](Cc1ccccc1)NC(=O)c1csc([C@@H](C[C@H](C(C)C)N(C)C(=O)[C@H](C)NC(=O)[C@H]2CCCCN2C)OC(C)=O)n1"
1180 nM

Further cases:
State measured GI50 of the molecule "Cc1cc(OCc2nnc3n2N=C(c2ccc(Cl)cc2Cl)CS3)ccc1Cl" with NCI-H460 lung.
62800 nM

// output GI50; input COc1ccc(C2=CC(c3ccc(OC)c(OC)c3)c3c(c4ccccc4oc3=O)O2)cc1OC (stereo not drawn) ; system NCI-H460 lung
1900 nM

GET GI50 where system = NCI-H460 lung and item = "C=C1c2c(Cl)ccc(O)c2C(O)=C2C(=O)[C@]3(O)C(O)=C(C(N)=O)C(=O)[C@@H](N(C)C)[C@@H]3[C@@H](O)[C@H]12"
1170 nM
